# Experiment Notes: Cytotoxicity against human HepG2 cells assessed as viable cells upto 40 ug/ml relative to control
# Assay type: toxicity, cell-based
# Run Conditions: up to 40 µg/mL, read-out: Activity
Measured Property: viability

[[record]]
compound = "CCCCc1nc(Cl)c(C2NC(=O)NC(CN(c3cc(C)no3)S(=O)(=O)c3ccc(N)cc3)=C2C(=O)OCC)[nH]1 (stereo unspecified)"
val = "> 50%"


====

# Tested on: Escherichia coli
# Experiment Notes: Antibacterial activity against Escherichia coli assessed as inhibition of bacterial growth by two fold serial dilution method
# Type: functional
Measured Property: MIC

[[record]]
molecule = "CCCCc1nc(Cl)c(C2NC(=O)NC(C)=C2C(=O)OCC)n1C (centres undefined)"
test_system = "Escherichia coli"
measured_property = "MIC"
val = "128 µg/mL"

[[record]]
molecule = "CCCCc1nc(Cl)c(C2NC(=O)NC(CNS(=O)(=O)c3ccc(N)cc3)=C2C(=O)OCC)[nH]1 (centres undefined)"
test_system = "Escherichia coli"
measured_property = "MIC"
val = "256 µg/mL"

[[record]]
molecule = "CCCCc1nc(Cl)c(C2NC(=O)NC(CN(c3ccc(OC)nn3)S(=O)(=O)c3ccc(N)cc3)=C2C(=O)OCC)[nH]1 (centres undefined)"
test_system = "Escherichia coli"
measured_property = "MIC"
val = "128 µg/mL"

[[record]]
molecule = "CCCCc1nc(Cl)c(C2NC(=O)NC(C)=C2C(=O)OCC)n1CCF (centres undefined)"
test_system = "Escherichia coli"
measured_property = "MIC"
val = "32 µg/mL"


====

In this section we review reported log10 MIC values for a set of molecules.
# Test system: Enterococcus faecalis
# Experiment Notes: Antibacterial activity against Enterococcus faecalis assessed as inhibition of bacterial growth by two fold serial dilution method
# Assay type: functional
Measured Property: log10 MIC (log10 of the value in µg/mL)

[[record]]
molecule = "CCCCc1nc(Cl)c(C2NC(=O)NC(C)=C2C(=O)OCC)n1Cc1ccc(C)cc1 (centres undefined)"
measured_property = "log10 MIC"
val = 1.81

[[record]]
molecule = "CCCCc1nc(Cl)c(C2NC(=O)NC(C)=C2C(=O)OCC)n1CCF (centres undefined)"
measured_property = "log10 MIC"
val = 1.81

[[record]]
molecule = "CCCCc1nc(Cl)c(C2NC(=O)NC(C)=C2C(=O)OCC)n1CCC (centres undefined)"
measured_property = "log10 MIC"
val = 1.51

[[record]]
molecule = "CCCCc1nc(Cl)c(C2NC(=O)NC(C)=C2C(=O)OCC)n1Cc1ccc(Cl)c(Cl)c1 (centres undefined)"
measured_property = "log10 MIC"
val = 1.81

[[record]]
molecule = "CCCCc1nc(Cl)c(C2NC(=O)NC(C)=C2C(=O)OCC)n1Cc1cccc(Cl)c1 (centres undefined)"
measured_property = "log10 MIC"
val = 1.81

[[record]]
molecule = "CCCCc1nc(Cl)c(C2NC(=O)NC(C)=C2C(=O)OCC)n1CCN1CCOCC1 (centres undefined)"
measured_property = "log10 MIC"
val = 2.11

[[record]]
molecule = "CCCCc1nc(Cl)c(C2NC(=O)NC(C)=C2C(=O)OCC)n1C (centres undefined)"
measured_property = "log10 MIC"
val = 2.11

[[record]]
molecule = "CCCCc1nc(Cl)c(C2NC(=O)NC(C)=C2C(=O)OCC)n1CC (centres undefined)"
measured_property = "log10 MIC"
val = 1.81

[[record]]
molecule = "CCCCc1nc(Cl)c(C2NC(=O)NC(C)=C2C(=O)OCC)n1S(=O)(=O)c1ccc(C(F)(F)F)cc1 (centres undefined)"
measured_property = "log10 MIC"
val = 1.20

[[record]]
molecule = "NC1CCN(c2c(F)cc3c(=O)c(C(=O)O)cn(C4CC4)c3c2Cl)C1 (centres undefined)"
measured_property = "log10 MIC"
val = -0.30

[[record]]
molecule = "CCCCc1nc(Cl)c(C2NC(=O)NC(CNS(=O)(=O)c3ccc(N)cc3)=C2C(=O)OCC)[nH]1 (centres undefined)"
measured_property = "log10 MIC"
val = 2.41

[[record]]
molecule = "CCCCc1nc(Cl)c(C2NC(=O)NC(C)=C2C(=O)OCC)n1S(=O)(=O)c1ccc(F)cc1 (centres undefined)"
measured_property = "log10 MIC"
val = 1.81

[[record]]
molecule = "CCCCc1nc(Cl)c(C2NC(=O)NC(C)=C2C(=O)OCC)n1Cc1ccc(F)cc1 (centres undefined)"
measured_property = "log10 MIC"
val = 1.51

[[record]]
molecule = "Cc1cc(NS(=O)(=O)c2ccc(N)cc2)no1"
measured_property = "log10 MIC"
val = 1.81

[[record]]
molecule = "CCCCc1nc(Cl)c(C2NC(=O)NC(CN(c3nccs3)S(=O)(=O)c3ccc(N)cc3)=C2C(=O)OCC)[nH]1 (centres undefined)"
measured_property = "log10 MIC"
val = 2.41

[[record]]
molecule = "CCCCc1nc(Cl)c(C2NC(=O)NC(C)=C2C(=O)OCC)n1S(=O)(=O)c1ccc(C(C)(C)C)cc1 (centres undefined)"
measured_property = "log10 MIC"
val = 2.11

[[record]]
molecule = "CCCCc1nc(Cl)c(C2NC(=O)NC(C)=C2C(=O)OCC)n1S(=O)(=O)c1cccc(Br)c1 (centres undefined)"
measured_property = "log10 MIC"
val = 1.20

[[record]]
molecule = "CCCCc1nc(Cl)c(C2NC(=O)NC(C)=C2C(=O)OCC)n1S(=O)(=O)c1ccccc1 (centres undefined)"
measured_property = "log10 MIC"
val = 1.81

[[record]]
molecule = "CCCCc1nc(Cl)c(C2NC(=O)NC(CN(c3ccc(OC)nn3)S(=O)(=O)c3ccc(N)cc3)=C2C(=O)OCC)[nH]1 (centres undefined)"
measured_property = "log10 MIC"
val = 1.81

